tested on: SNB-75 CNS; assay: NCI-60 one-dose screen, 48 h (100 = growth as untreated, 0 = no growth, -100 = all killed); settings: 10 µM unless noted
This is part of a sample that, as a whole, favours compounds with a hit. Of some 83,000 tested, about 20% had one in any assay. Active and inactive are the calls of the source. How the source made its calls: active means growth percent below 10; inactive means the rest.
Entries and their measured growth follow.

Recorded results for 6 compounds are shown here.
compound	growth
COc1ccc(-c2nnc3n(C)c(=O)c4ccccc4n23)cc1O	9.51% (active)
Cc1c(C(=O)OCCCCOC(=O)c2c(C)n(C)c3scc[n+]23)[n+]2ccsc2n1C	80.5% (inactive)
COc1ccc(/C=C2\COc3ccc(O)c(O)c3C2=O)c(OC)c1OC	37.9% (inactive)
CCC(=C(c1ccc(OCCCN(C)C)cc1)c1ccc(OCCCN(C)C)cc1)c1ccc(Cl)cc1	-96.6% (active)
Cn1c(=O)c2c(nc(Nc3cc(=O)[nH]c(=O)[nH]3)n2Cc2ccccc2)n(C)c1=O	-21% (active)
CC(C)=CCc1cc(O)c(O)c2oc3cc(O)cc(O)c3c(=O)c12	60.2% (inactive)

Req: Look up and state reported growth for CCCCn1c(C(=O)c2c[nH]c3ccccc23)n[nH]c1=S
Resp: 81.2% (inactive)

Req: Give the value of growth reported for the following: Cc1ccc(NC(=O)N/C(N)=N/c2nc(=O)c3ccccc3s2)cc1
Resp: 83.1% (inactive)

Req: Supply growth value. Item: CCOC(=O)c1cnn(CC(O)CC)c1NC(=O)NCc1ccccc1C(F)(F)F (centres undefined)
Resp: 96% (inactive)

Req: Using known records, supply growth for O=C1C(=C(O)c2ccccc2)C(=O)c2ccccc21
Resp: 76.5% (inactive)

Req: Find the measured growth of O=C1OCC2=C1C(c1cccc(C(F)(F)F)c1)c1cc3c(cc1N2CCO)OCCO3 (centres undefined) and report it.
Resp: 42.4% (inactive)

###

Listed here are compounds together with their documented growth.
tested on: OVCAR-5 ovarian; assay: NCI-60 one-dose screen, 48 h (100 = growth as untreated, 0 = no growth, -100 = all killed); conditions: 10 µM unless noted
This is part of a sample that, as a whole, favours compounds with a hit. Of some 83,000 tested, about 20% had one in any assay.
Field format: number, assumed %, no unit text.

Here are 7 compounds together with their reported answers.
compound	growth (%)
CCCCCCCCn1ccc2cc(NC(=O)CN3CCN(c4nc(C)cc(N5CCCCC5)n4)CC3)ccc21	103
COc1cc(/C=C/C(=O)c2ccc(NC(=O)CSc3nnc(-c4cc(-c5ccccc5)nc5ccccc45)n3-c3ccccc3)cc2)cc(OC)c1OC	93.6
CCOC(=O)C1=C(C)NC(=O)NC1c1c(Cl)n(-c2ccccc2)c2ccccc12 (stereo not drawn)	84.7
C#CCOCC1CN(C)C(=O)O1 (stereo not drawn)	126
COc1ccc(Cl)cc1Nc1nc(C(F)(F)F)ccc1C(=O)N/N=C/c1ccc(N(C)C)cc1	79.5
O=c1c(/C=C/c2ccco2)nnc2sc(Nc3ccc(Cl)cc3)nn12	97.1
Cc1ccc(-c2nc(SCC(=O)c3ccc(C#N)cc3)[nH]c(=O)c2C#N)cc1	94.8

Now for the compound whose growth we want.
Req: Recall and state the measured growth for COc1ccc(-c2nc(Cl)c3c(C)nn(-c4ccc(F)cc4)c3n2)cc1 .
Resp: 110
